# Test system: TNFα
# TEST NAME: cells
# Type: cell-based, human
# PROTOCOL CONDITIONS: Homo sapiens, Monocyte, LPS-stimulated human monocytes, TNFα content; read-out: EC50 TNF
pEC50: −log10 of the molar value.
Response key: t means pEC50 >= 7; f means pEC50 < 7.

| COMPOUND STRUCTURE | ASSAY SYSTEM | LABEL CLASS |
| --- | --- | --- |
| CC(C)(O)[C@H](F)CNC(=O)c1cnc(-c2ccc3cc(C#N)cnn23)cc1N | TNFα | f |
| CC(C)(O)[C@H](F)CNC(=O)c1cnc(-c2ccc3cc(C#N)cnn23)cc1Nc1ccc(-c2ccon2)cc1 | TNFα | t |
| COC(C)(C)[C@H](F)CNC(=O)c1cnc(-c2ccc3cc(C#N)cnn23)cc1N[C@H]1CCC[C@@H](O)C1 | TNFα | t |
| CC(C)(O)[C@H](F)CNC(=O)c1cnc(-c2ccc3cc(C#N)cnn23)cc1N[C@@H]1CNCCC1(F)F | TNFα | t |
| CN(C)C(=O)NC12CCC(Nc3cc(-c4ccc5cc(C#N)cnn45)ncc3C(=O)NC[C@@H](F)C(C)(C)O)(CC1)CC2 | TNFα | t |
| CCNC(=O)C12CCC(Nc3cc(-c4ccc5cc(C#N)cnn45)ncc3C(=O)NC[C@@H](F)C(C)(C)O)(CC1)CC2 | TNFα | t |

Source: patent US10336762B2
